- condition-context: in ethanol, 298.15 K
readout-name: solubility (mole fraction)
Keep the answer to the number alone.

Q) State the recorded solubility (mole fraction) for this entry: CC(C(=O)O)c1ccc(CC2CCCC2=O)cc1 (stereo unspecified)
A) 0.0943

###

- condition-context: in ethyl acetate, 313.15 K
readout-name: solubility (mole fraction)
Keep the answer to the number alone.

Q) State the recorded solubility (mole fraction) for this entry: CC(C(=O)O)c1ccc(CC2CCCC2=O)cc1 (stereo unspecified)
A) 0.162

###

- condition-context: in methyl acetate, 313.15 K
readout-name: solubility (mole fraction)
Keep the answer to the number alone.

Q) State the recorded solubility (mole fraction) for this entry: CC(C(=O)O)c1ccc(CC2CCCC2=O)cc1 (stereo unspecified)
A) 0.17

###

- condition-context: in isopropyl acetate, 318.15 K
readout-name: solubility (mole fraction)
Keep the answer to the number alone.

Q) State the recorded solubility (mole fraction) for this entry: CC(C(=O)O)c1ccc(CC2CCCC2=O)cc1 (stereo unspecified)
A) 0.134

###

- condition-context: in isobutyl acetate, 283.15 K
readout-name: solubility (mole fraction)
Keep the answer to the number alone.

Q) State the recorded solubility (mole fraction) for this entry: CC(C(=O)O)c1ccc(CC2CCCC2=O)cc1 (stereo unspecified)
A) 0.0261

###

- condition-context: in 1,4-dioxane, 313.15 K
readout-name: solubility (mole fraction)

Q) State the recorded solubility (mole fraction) for this entry: CC(C(=O)O)c1ccc(CC2CCCC2=O)cc1 (stereo unspecified)
A) 0.304

###

- condition-context: in methyl acetate, 308.15 K
readout-name: solubility (mole fraction)
Keep the answer to the number alone.

Q) State the recorded solubility (mole fraction) for this entry: CC(C(=O)O)c1ccc(CC2CCCC2=O)cc1 (stereo unspecified)
A) 0.136

###

- condition-context: in ethanol, 328.15 K
readout-name: solubility (mole fraction)
Keep the answer to the number alone.

Q) State the recorded solubility (mole fraction) for this entry: CC(C(=O)O)c1ccc(CC2CCCC2=O)cc1 (stereo unspecified)
A) 0.389

###

- condition-context: in ethyl orthosilicate, 308.15 K
readout-name: solubility (mole fraction)
Keep the answer to the number alone.

Q) State the recorded solubility (mole fraction) for this entry: CC(C(=O)O)c1ccc(CC2CCCC2=O)cc1 (stereo unspecified)
A) 0.0491

###

- condition-context: in methanol, 288.15 K
readout-name: solubility (mole fraction)
Keep the answer to the number alone.

Q) State the recorded solubility (mole fraction) for this entry: CC(C(=O)O)c1ccc(CC2CCCC2=O)cc1 (stereo unspecified)
A) 0.0783

###

- condition-context: in n-propanol, 308.15 K
readout-name: solubility (mole fraction)
Keep the answer to the number alone.

Q) State the recorded solubility (mole fraction) for this entry: CC(C(=O)O)c1ccc(CC2CCCC2=O)cc1 (stereo unspecified)
A) 0.139

###

- condition-context: in methyl acetate, 288.15 K
readout-name: solubility (mole fraction)
Keep the answer to the number alone.

Q) State the recorded solubility (mole fraction) for this entry: CC(C(=O)O)c1ccc(CC2CCCC2=O)cc1 (stereo unspecified)
A) 0.0659

###

- condition-context: in 1,4-dioxane, 283.15 K
readout-name: solubility (mole fraction)
Keep the answer to the number alone.

Q) State the recorded solubility (mole fraction) for this entry: CC(C(=O)O)c1ccc(CC2CCCC2=O)cc1 (stereo unspecified)
A) 0.154

###

- condition-context: in isopentyl acetate, 293.15 K
readout-name: solubility (mole fraction)
Keep the answer to the number alone.

Q) State the recorded solubility (mole fraction) for this entry: CC(C(=O)O)c1ccc(CC2CCCC2=O)cc1 (stereo unspecified)
A) 0.035

###

- condition-context: in n-propyl acetate, 323.15 K
readout-name: solubility (mole fraction)
Keep the answer to the number alone.

Q) State the recorded solubility (mole fraction) for this entry: CC(C(=O)O)c1ccc(CC2CCCC2=O)cc1 (stereo unspecified)
A) 0.199

###

- condition-context: in isopropanol, 298.15 K
readout-name: solubility (mole fraction)

Q) State the recorded solubility (mole fraction) for this entry: CC(C(=O)O)c1ccc(CC2CCCC2=O)cc1 (stereo unspecified)
A) 0.0966

###

- condition-context: in methyl acetate, 293.15 K
readout-name: solubility (mole fraction)
Keep the answer to the number alone.

Q) State the recorded solubility (mole fraction) for this entry: CC(C(=O)O)c1ccc(CC2CCCC2=O)cc1 (stereo unspecified)
A) 0.0797

###

- condition-context: in n-propyl acetate, 293.15 K
readout-name: solubility (mole fraction)
Keep the answer to the number alone.

Q) State the recorded solubility (mole fraction) for this entry: CC(C(=O)O)c1ccc(CC2CCCC2=O)cc1 (stereo unspecified)
A) 0.0529

###

- condition-context: in ethanol, 323.15 K
readout-name: solubility (mole fraction)
Keep the answer to the number alone.

Q) State the recorded solubility (mole fraction) for this entry: CC(C(=O)O)c1ccc(CC2CCCC2=O)cc1 (stereo unspecified)
A) 0.316

###

- condition-context: in isobutyl acetate, 303.15 K
readout-name: solubility (mole fraction)

Q) State the recorded solubility (mole fraction) for this entry: CC(C(=O)O)c1ccc(CC2CCCC2=O)cc1 (stereo unspecified)
A) 0.0583

###

- condition-context: in 1,4-dioxane, 328.15 K
readout-name: solubility (mole fraction)
Keep the answer to the number alone.

Q) State the recorded solubility (mole fraction) for this entry: CC(C(=O)O)c1ccc(CC2CCCC2=O)cc1 (stereo unspecified)
A) 0.408

###

- condition-context: in n-butyl acetate, 328.15 K
readout-name: solubility (mole fraction)
Keep the answer to the number alone.

Q) State the recorded solubility (mole fraction) for this entry: CC(C(=O)O)c1ccc(CC2CCCC2=O)cc1 (stereo unspecified)
A) 0.205

###

- condition-context: in n-propyl acetate, 283.15 K
readout-name: solubility (mole fraction)

Q) State the recorded solubility (mole fraction) for this entry: CC(C(=O)O)c1ccc(CC2CCCC2=O)cc1 (stereo unspecified)
A) 0.0384

###

- condition-context: in isobutyl acetate, 293.15 K
readout-name: solubility (mole fraction)
Keep the answer to the number alone.

Q) State the recorded solubility (mole fraction) for this entry: CC(C(=O)O)c1ccc(CC2CCCC2=O)cc1 (stereo unspecified)
A) 0.0357

###

- condition-context: in ethyl orthosilicate, 318.15 K
readout-name: solubility (mole fraction)

Q) State the recorded solubility (mole fraction) for this entry: CC(C(=O)O)c1ccc(CC2CCCC2=O)cc1 (stereo unspecified)
A) 0.0694

###

- condition-context: in ethyl orthosilicate, 323.15 K
readout-name: solubility (mole fraction)
Keep the answer to the number alone.

Q) State the recorded solubility (mole fraction) for this entry: CC(C(=O)O)c1ccc(CC2CCCC2=O)cc1 (stereo unspecified)
A) 0.0796

###

- condition-context: in ethyl acetate, 283.15 K
readout-name: solubility (mole fraction)
Keep the answer to the number alone.

Q) State the recorded solubility (mole fraction) for this entry: CC(C(=O)O)c1ccc(CC2CCCC2=O)cc1 (stereo unspecified)
A) 0.0521

###

- condition-context: in methyl acetate, 303.15 K
readout-name: solubility (mole fraction)
Keep the answer to the number alone.

Q) State the recorded solubility (mole fraction) for this entry: CC(C(=O)O)c1ccc(CC2CCCC2=O)cc1 (stereo unspecified)
A) 0.11

###

- condition-context: in acetonitrile, 288.15 K
readout-name: solubility (mole fraction)
Keep the answer to the number alone.

Q) State the recorded solubility (mole fraction) for this entry: CC(C(=O)O)c1ccc(CC2CCCC2=O)cc1 (stereo unspecified)
A) 0.0296

###

- condition-context: in isopentyl acetate, 298.15 K
readout-name: solubility (mole fraction)
Keep the answer to the number alone.

Q) State the recorded solubility (mole fraction) for this entry: CC(C(=O)O)c1ccc(CC2CCCC2=O)cc1 (stereo unspecified)
A) 0.0448

###

- condition-context: in isobutyl acetate, 328.15 K
readout-name: solubility (mole fraction)
Keep the answer to the number alone.

Q) State the recorded solubility (mole fraction) for this entry: CC(C(=O)O)c1ccc(CC2CCCC2=O)cc1 (stereo unspecified)
A) 0.191

###

- condition-context: in n-butyl acetate, 303.15 K
readout-name: solubility (mole fraction)
Keep the answer to the number alone.

Q) State the recorded solubility (mole fraction) for this entry: CC(C(=O)O)c1ccc(CC2CCCC2=O)cc1 (stereo unspecified)
A) 0.0621

###

- condition-context: in ethyl acetate, 328.15 K
readout-name: solubility (mole fraction)
Keep the answer to the number alone.

Q) State the recorded solubility (mole fraction) for this entry: CC(C(=O)O)c1ccc(CC2CCCC2=O)cc1 (stereo unspecified)
A) 0.301

###

- condition-context: in n-butyl acetate, 283.15 K
readout-name: solubility (mole fraction)
Keep the answer to the number alone.

Q) State the recorded solubility (mole fraction) for this entry: CC(C(=O)O)c1ccc(CC2CCCC2=O)cc1 (stereo unspecified)
A) 0.0284

###

- condition-context: in isopropanol, 313.15 K
readout-name: solubility (mole fraction)
Keep the answer to the number alone.

Q) State the recorded solubility (mole fraction) for this entry: CC(C(=O)O)c1ccc(CC2CCCC2=O)cc1 (stereo unspecified)
A) 0.189

###

- condition-context: in isopropanol, 318.15 K
readout-name: solubility (mole fraction)
Keep the answer to the number alone.

Q) State the recorded solubility (mole fraction) for this entry: CC(C(=O)O)c1ccc(CC2CCCC2=O)cc1 (stereo unspecified)
A) 0.224

All values here come from BigSolDB 2.1.
